# Tested on: mice
# test_details: Dispair test (Porsolt) in mice
# Assay type: in vivo, Swiss strain male mice (CD-1 Charles River)
# assay_conditions: Mus musculus, ip, 1 h; 1 mg/kg i.p., vs control (dosage 0); read-out: immobility duration < % (decrease)
metric: inhibition in vivo at 1 mg/kg (%)
Form entry: value (%) — number only.

Task: For COc1ccc(CSc2nnc(NC(C)=O)s2)cc1 , what is its reported inhibition in vivo at 1 mg/kg?
Result: 15

Task: Here is the next compound: COc1cccc(CSc2nnc(N)s2)c1
Result: 14

Task: Same thing, different compound: CC(=O)Nc1nnc(SC(C)C)s1
Result: 19

Task: Item: CC(=O)N(C)c1nnc(SC(C)C)s1
Result: 14

Values compiled from patent US5401853A.
